Below, each entry is listed with its recorded TGI.
test system: SNB-75 CNS; experiment: NCI tumour cell line growth inhibition, 48 h

# molecule, TGI
data = [
    ("Cn1c2c(c3ccccc3c1=O)C(=O)c1ccccc1-2", "> 100 µM"),
]

Given the molecule O=C(O/N=c1/ccc(=O)/c(=N\OC(=O)c2ccccc2)c1=O)c1ccccc1 , what is its reported TGI?
> 100 µM

Data request, read-out TGI, for Cc1cccc2c1Sc1ccccc1C2NC(=O)CN(C)C (stereo unspecified)
86.7 µM

Which TGI reading was recorded for the molecule Cn1cc(C2=C(c3cc[nH]c3)C(=O)NC2=O)c2ccccc21 ?
> 25 µM

Query (molecule): Nc1n[nH]c2c(C(=O)Nc3ccc(Cl)cc3)c(N)n(N)c(=O)c12 ; field requested: TGI
> 100 µM

If you can, please state the reported TGI value of COC(=O)c1c2c(c(C)[n+]([O-])c1C)C(=O)C(NCc1ccc(F)cc1)=CC2=O .
5.96 µM
